biological target: GSK3α (Homo sapiens); experiment: GSK 3α enzyme inhibition (FRET), Method 1; assay type: biochemical; conditions: Table 4a1
Sequence (P49840 whole entry): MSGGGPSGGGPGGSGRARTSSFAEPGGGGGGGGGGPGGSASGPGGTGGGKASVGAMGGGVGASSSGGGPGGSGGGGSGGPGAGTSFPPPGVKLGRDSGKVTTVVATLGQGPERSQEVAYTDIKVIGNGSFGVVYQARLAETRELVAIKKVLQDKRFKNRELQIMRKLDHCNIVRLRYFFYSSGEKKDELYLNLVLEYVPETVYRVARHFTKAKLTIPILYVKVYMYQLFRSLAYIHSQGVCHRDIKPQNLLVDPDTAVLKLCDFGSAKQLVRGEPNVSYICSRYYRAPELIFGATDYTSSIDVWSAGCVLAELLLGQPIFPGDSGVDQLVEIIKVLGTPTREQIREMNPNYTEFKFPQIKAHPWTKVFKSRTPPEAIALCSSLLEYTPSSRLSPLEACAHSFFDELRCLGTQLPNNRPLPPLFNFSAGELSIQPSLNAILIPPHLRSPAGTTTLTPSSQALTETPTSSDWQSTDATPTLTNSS
pIC50: −log10 of the molar value.
value type: pIC50

These solved cases illustrate the format of a correct answer.
COc1ccc(C(=O)NCCO)cc1Nc1nccc(Oc2ccc(NC(=O)Nc3cc(C(C)(C)C)nn3-c3ccc(C)cc3)c3ccccc23)n1	< 4.84
Cc1ccc(-n2nc(C(C)C)cc2NC(=O)Nc2ccc(Oc3ccnc(Nc4cc(C(=O)NCCN5CCOCC5)cc(C(F)(F)F)c4)n3)c3ccccc23)cc1	< 4.90

Which pIC50 value belongs to COc1cc(C(=O)NCCN2CCOCC2)ccc1Nc1nccc(Oc2ccc(NC(=O)Nc3cc(C(C)(C)C)nn3-c3ccc(C)cc3)c3ccccc23)n1 ?
< 4.89

* * *

Target: Syk (Homo sapiens)
Test: Syk enzyme inhibition (FRET)
Format: biochemical
Settings: Table 4a2, different laboratory
Procedure: The enzyme inhibitory activities of compounds disclosed herein are determined by FRET using synthetic peptides labelled with both donor and acceptor fluorophores (Z-LYTE, Invitrogen Ltd., Paisley, UK). The relevant enzyme (3000 ng/mL or 2000 ng/mL respectively, 2.5 μL) is incubated with the test compound (either 4 μg/mL, 0.4 μg/mL, 0.04 μg/mL, or 0.004 μg/mL, 2.5 μL each) for 2 hr at RT. […]
value type: IC50 (nM)

The cases that follow already have their IC50 on record.
C#Cc1cc(Nc2nccc(Oc3ccc(NC(=O)Nc4cc(C(C)(C)C#N)nn4-c4ccc(C)cc4)c4ccccc34)n2)cc(C(=O)NCCN2CCOCC2)c1	23
C#Cc1cc(Nc2nccc(Oc3ccc(NC(=O)Nc4cc(C(C)(C)C)nn4-c4ccc(OC)cc4)c4ccccc34)n2)cc(C(=O)NCCN2CCOCC2)c1	18

A = COCCNC(=O)c1cc(Nc2nccc(Oc3ccc(NC(=O)Nc4cc(C(C)C)nn4-c4ccc(OC)cc4)c4ccccc34)n2)cc(OC)c1
B = C#Cc1cc(Nc2nccc(Oc3ccc(NC(=O)Nc4cc(C(C)(C)C)nn4-c4ccc(OC)cc4)c4ccccc34)n2)cc(C(=O)NCCOC)c1
Quick one: lower IC50, A or B ? Response format: the label of the selected entry.
B

* * *

target: Syk (Homo sapiens); experiment: Syk enzyme inhibition (FRET); type: biochemical; conditions: Table 4a1
value type: IC50 (nM)

COc1ccc(-n2nc(C(C)(C)C)cc2NC(=O)Nc2ccc(Oc3ccnc(Nc4cccc(C(=O)NCCN5CCOCC5)c4)n3)c3ccccc23)cc1 [Example 21]	14
Cc1csc(-n2nc(C(C)(C)C)cc2NC(=O)Nc2ccc(Oc3ccnc(Nc4cccc(C(=O)NCCN5CCOCC5)c4)n3)c3ccccc23)c1 [Example 24]	14
COc1ccc(Nc2nccc(Oc3ccc(NC(=O)Nc4cc(C(C)(C)C)nn4-c4ccc(C)cc4)c4ccccc34)n2)cc1C(=O)NCCN1CCOCC1 [Example 13]	16

P = COc1cc(Nc2cc(Oc3ccc(NC(=O)Nc4cc(C(C)(C)C)nn4-c4ccc(C)cc4)c4ccccc34)ccn2)cc(C(=O)NCCN2CCOCC2)c1 [Example 1]
Q = COc1ccc(-n2nc(C(C)C)cc2NC(=O)Nc2ccc(Oc3ccnc(Nc4cccc(C(=O)NCCN5CCOCC5)c4)n3)c3ccccc23)cc1 [Example 20]
Hi! Which is lower in terms of IC50, the first one P or the second one Q ? I would appreciate it if you answered with the label of your choice.
P
(P: 10 nM, Q: 15 nM)
